Collected glycan array binding signal (z-score) values appear next to each entry.
molecular target: Fuc(a1-2)[Gal(a1-3)]Gal(b1-4)GlcNAc(b1-2)Man; assay: glycan array binding signal (z-score within array); higher = stronger binding; conditions: glycan notation: IUPAC condensed, linker removed
This is one part of a sample in which the strongest signals are shown more often than they occur.

{"BINDER": "SGC, Q9M345 (protein) QNLNFTYNGFHPPLTDISLQGLATVTPNGLLKLTNTSVQKTGHAFCTERIRFKDSQNGNVSSFSTTFVFAIHSQIPTLSGHGIAFVVAPTLGLPFALPSQYIGLFNISNNGNDTNHIFAVEFDTIQSSEFGDPNDNHVGIDLNGLRSANYSTAGYRDDHDKFQNLSLISRKRIQVWIDYDNRSHRIDVTVAPFDSDKPRKPLVSYVRDLSSILLEDMYVGFSSATGSVLSEHFLVGWSFRLNGEAPMLSLSKLPKLPRFEPRRIS", "glycan array binding signal (z-score)": -0.352}
{"BINDER": "ERGIC1-EDTA (Homo sapiens), Q969X5 (protein) MKFLVNVALVFMVVYISYIYAAAHMHHHHHHDYDIPTTENLYFQGSEVVNELYVDDPDKDSGGKIDVSLNISLPNLHCELVGLDIQDEMGRHEVGHIDNSMKIPLNNGAGCRFEGQFSINKVPGNFHVSTHSATAQPQNPDMTHVIHKLSFGDTLQVQNIHGAFNALGGADRLTSNPLASHDYILKIVPTVYEDKSGKQRYSYQYTVANKEYVAYSHTGRIIPAIWFRYDLSPITVKYTE", "glycan array binding signal (z-score)": 0.546}
{"BINDER": "rCNL (Clitocybe nebularis), B2ZRS9 (protein) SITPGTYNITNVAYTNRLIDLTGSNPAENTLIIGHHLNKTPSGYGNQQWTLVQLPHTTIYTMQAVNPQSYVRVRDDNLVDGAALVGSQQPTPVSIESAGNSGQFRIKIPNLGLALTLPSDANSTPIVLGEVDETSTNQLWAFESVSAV", "glycan array binding signal (z-score)": -0.215}
{"BINDER": "ECA (Erythrina cristagalli), P83410 (protein) VETISFSFSEFEPGNDNLTLQGAALITQSGVLQLTKINQNGMPAWDSTGRTLYTKPVHMWDSTTGTVASFETRFSFSIEQPYTRPLPADGLVFFMGPTKSKPAQGYGYLGVFNNSKQDNSYQTLAVEFDTFSNPWDPPQVPHIGIDVNSIRSIKTQPFQLDNGQVANVVIKYDAPSKILHVVLVYPSSGAIYTIAEIVDVKQVLPDWVDVGLSGATGAQRDAAETHDVYSWSFQASLPE", "glycan array binding signal (z-score)": -0.485}
{"BINDER": "KISKRILTGKK [NK11 (Sus scrofa)]", "glycan array binding signal (z-score)": -0.085}
{"BINDER": "Gal 8 (Mus musculus), Q9JL15 (protein) MGGSHHHHHHGMASMLSLNNLQNIIYNPIIPYVGTITEQLKPGSLIVIRGHVPKDSERFQVDFQLGNSLKPRADVAFHFNPRFKRSSCIVCNTLTQEKWGWEEITYDMPFRKEKSFEIVFMVLKNKFQVAVNGRHVLLYAHRISPEQIDTVGIYGKVNIHSIGFRFSSASALPHTLGDLQSMETSALGLTQINRENIQKPGKLQLSLPFEARLNASMGPGRTVVIKGEVNTNARSFNVDLVAGKTRDIALHLNPRLNVKAFVRNSFLQDAWGEEERNITCFPFSSGMYFEMIIYCDVREFKVAINGVHSLEYKHRFKDLSSIDTLSVDGDIRLLDVRSW", "glycan array binding signal (z-score)": 2.84}

Every entry's value here was drawn from the supplement of paper PMC8728848.
